Please respond with reported hGLP1R cAMP EC50 ratio for every item in the list.
target_desc: human GLP-1 receptor (GLP-1R) (human, UniProt P43220 24-463)
assay_notes: cell-based or functional assay
Output spec: single numeric token, no unit.

Reported hGLP1R cAMP EC50 ratio for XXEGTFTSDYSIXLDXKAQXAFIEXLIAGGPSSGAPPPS (D-Tyr1; Aib2; αMeL13; Orn16; K17 conjugated to (2-[2-(2-Amino-ethoxy)-ethoxy]-acetyl)2-(γ-Glu)-CO-(CH2)16-CO2H; Aib20; αMeY25; C-terminal amide (NH2)) : what is it? 0.199

Return reported hGLP1R cAMP EC50 ratio; argument: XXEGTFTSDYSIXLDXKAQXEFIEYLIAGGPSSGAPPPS (D-Tyr1; Aib2; αMeL13; Orn16; K17 conjugated to (2-[2-(2-Amino-ethoxy)-ethoxy]-acetyl)-(γ-Glu)-CO-(CH2)18-CO2H; Aib20; C-terminal amide (NH2)) 0.206

Could you share which hGLP1R cAMP EC50 ratio value was measured for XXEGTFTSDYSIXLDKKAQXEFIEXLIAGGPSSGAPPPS (D-Tyr1; Aib2; αMeL13; K17 conjugated to (2-[2-(2-Amino-ethoxy)-ethoxy]-acetyl)-(γ-Glu)-CO-(CH2)18-CO2H; Aib20; αMeY25; C-terminal amide (NH2)) ? 0.0741
